- target-entity: calcium antagonism (thoracic aorta spiral specimen, contraction by calcium) (Cavia porcellus)
- Construct: from tissue; host or cells: thoracic aorta spiral strip of male Hartley guinea pig
- Sequence (O35505 whole entry): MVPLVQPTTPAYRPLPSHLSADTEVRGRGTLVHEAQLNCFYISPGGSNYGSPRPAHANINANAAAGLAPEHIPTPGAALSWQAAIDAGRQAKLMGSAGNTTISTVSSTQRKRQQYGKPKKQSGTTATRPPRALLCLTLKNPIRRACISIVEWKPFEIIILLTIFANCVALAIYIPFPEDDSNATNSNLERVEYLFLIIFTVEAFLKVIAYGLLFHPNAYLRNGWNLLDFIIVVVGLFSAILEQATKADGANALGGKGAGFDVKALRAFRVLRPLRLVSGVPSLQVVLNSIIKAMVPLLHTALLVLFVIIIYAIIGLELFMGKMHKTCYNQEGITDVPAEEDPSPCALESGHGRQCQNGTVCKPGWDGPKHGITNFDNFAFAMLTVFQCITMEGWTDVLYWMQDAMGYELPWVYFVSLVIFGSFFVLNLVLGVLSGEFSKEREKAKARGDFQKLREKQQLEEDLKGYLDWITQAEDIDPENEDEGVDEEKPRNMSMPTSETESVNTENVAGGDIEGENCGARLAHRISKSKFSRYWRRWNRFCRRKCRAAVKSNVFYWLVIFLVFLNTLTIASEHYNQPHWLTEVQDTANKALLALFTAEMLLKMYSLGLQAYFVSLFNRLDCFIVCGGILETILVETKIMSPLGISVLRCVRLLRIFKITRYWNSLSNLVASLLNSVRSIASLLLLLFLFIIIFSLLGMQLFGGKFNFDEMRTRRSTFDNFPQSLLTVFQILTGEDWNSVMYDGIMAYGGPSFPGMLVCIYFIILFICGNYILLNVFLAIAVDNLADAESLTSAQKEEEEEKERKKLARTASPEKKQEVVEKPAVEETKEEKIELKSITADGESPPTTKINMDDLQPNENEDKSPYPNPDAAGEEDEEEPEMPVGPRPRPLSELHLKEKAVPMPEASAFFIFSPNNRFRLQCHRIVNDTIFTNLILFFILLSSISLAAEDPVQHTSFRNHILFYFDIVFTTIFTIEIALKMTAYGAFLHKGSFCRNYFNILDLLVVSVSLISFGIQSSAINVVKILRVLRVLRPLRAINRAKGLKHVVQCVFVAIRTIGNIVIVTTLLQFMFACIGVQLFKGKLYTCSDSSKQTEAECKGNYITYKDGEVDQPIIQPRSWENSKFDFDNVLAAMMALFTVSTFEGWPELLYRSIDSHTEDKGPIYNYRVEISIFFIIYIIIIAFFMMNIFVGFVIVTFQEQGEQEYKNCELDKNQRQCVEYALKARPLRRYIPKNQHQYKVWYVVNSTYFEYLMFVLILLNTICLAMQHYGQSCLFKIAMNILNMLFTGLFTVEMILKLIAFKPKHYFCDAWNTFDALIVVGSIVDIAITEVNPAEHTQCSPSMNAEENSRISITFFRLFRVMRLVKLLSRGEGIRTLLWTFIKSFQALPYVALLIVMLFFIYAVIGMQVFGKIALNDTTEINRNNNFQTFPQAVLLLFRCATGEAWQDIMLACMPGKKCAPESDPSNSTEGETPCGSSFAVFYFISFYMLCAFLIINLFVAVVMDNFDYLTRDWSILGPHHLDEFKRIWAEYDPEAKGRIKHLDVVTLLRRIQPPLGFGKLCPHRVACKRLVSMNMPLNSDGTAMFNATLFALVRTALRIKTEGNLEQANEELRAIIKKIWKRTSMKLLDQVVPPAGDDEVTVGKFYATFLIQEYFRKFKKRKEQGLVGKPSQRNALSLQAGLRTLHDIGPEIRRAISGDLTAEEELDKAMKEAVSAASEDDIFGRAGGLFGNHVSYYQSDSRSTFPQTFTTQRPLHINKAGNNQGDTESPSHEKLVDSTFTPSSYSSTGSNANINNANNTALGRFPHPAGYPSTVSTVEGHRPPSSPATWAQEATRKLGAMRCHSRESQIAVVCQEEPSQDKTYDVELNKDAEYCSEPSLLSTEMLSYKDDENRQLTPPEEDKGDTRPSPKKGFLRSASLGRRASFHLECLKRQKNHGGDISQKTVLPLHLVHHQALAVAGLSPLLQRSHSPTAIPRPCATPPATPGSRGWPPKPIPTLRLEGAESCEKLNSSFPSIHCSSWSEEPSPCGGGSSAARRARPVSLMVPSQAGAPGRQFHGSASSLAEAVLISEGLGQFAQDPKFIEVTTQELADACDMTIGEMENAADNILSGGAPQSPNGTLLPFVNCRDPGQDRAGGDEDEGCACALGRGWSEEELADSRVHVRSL
- assay-remarks: Calcium antagonistic effect (contraction response by calcium of spiral thoracic aorta specimen, Magnus method)
- Set-up: species or system Hartly male giunea pig
- condition-context: guinea pig thoracic aorta; antagonism of calcium contraction; read-out: Calcium antagonistic effect, pA2 value (converted)
Structures can show the parent of a compound that is named as a salt.
Each entry below carries its reported Kb.
measured-metric: Kb

- CC(=O)c1cc2cc(OCC(O)CN3CCN(c4ccccc4C)CC3)ccc2o1 (stereo not drawn) [Ex. 7 (HCl salt)]: 0.631 µM
- COc1ccccc1N1CCN(CC(O)COc2ccc3oc(C(N)=O)cc3c2)CC1 (stereo not drawn): 1.17 µM
- COc1ccccc1N1CCN(CC(O)COc2cccc3cc(C#N)oc23)CC1 (stereo not drawn) [Ex. 16 (HCl salt)]: 0.513 µM
- COc1ccccc1N1CCN(CC(O)COc2ccc3cc(C(N)=O)oc3c2)CC1 (stereo not drawn): 0.158 µM
- COc1ccccc1N1CCN(CC(O)COc2ccc3cc(C(C)=O)oc3c2)CC1 (stereo not drawn) [Ex. 4 (HCl salt)]: 0.525 µM
- COc1ccccc1N1CCN(CC(O)COc2cccc3cc(C(C)O)oc23)CC1 (stereo not drawn): 1.05 µM
- Cc1ccccc1N1CCN(CC(O)COc2ccc3cc(C(N)=O)oc3c2)CC1 (stereo not drawn): 0.182 µM
- COc1ccccc1N1CCN(CC(O)COc2cccc3cc(C(N)=O)oc23)CC1 (stereo not drawn): 0.631 µM
- Cc1ccccc1N1CCN(CC(O)COc2cccc3cc(C(C)O)oc23)CC1 (stereo not drawn): 0.589 µM

----------
- assay-remarks: Increasing effect on a coronary blood flow (anesthetized dog)
- Format: in vivo
- condition-context: administered once into perfusion channel
Counter-ions that a name gives are not always drawn.
measured-metric: Increasing rated of coronary blood flow when administered with a 1 mg

- COc1ccc(Cc2nccc3cc(OC)c(OC)cc23)cc1OC [papavelin, Papavelin, reference compound]: 136.3 ± 27.0%
- COc1ccccc1N1CCN(CC(O)COc2ccc3oc(C(C)=O)cc3c2)CC1 (stereo not drawn) [Ex. 5 (HCl salt)]: 107.5 ± 6.5%
- CC(=O)c1cc2cccc(OCC(O)CN3CCN(c4cccc(Cl)c4)CC3)c2o1 (stereo not drawn) [Ex. 8 (HCl salt)]: 96.3 ± 13.1%
- COc1ccccc1N1CCN(CC(O)COc2cccc3cc(C(C)=O)oc23)CC1 (stereo not drawn) [Ex. 2 (HCl salt)]: 88.4 ± 14.2%
- COc1ccccc1N1CCN(CC(O)COc2cccc3cc(C(C)O)oc23)CC1 (stereo not drawn): 87.7 ± 9.4%
- COc1ccccc1N1CCN(CC(O)COc2cccc3cc(C(N)=O)oc23)CC1 (stereo not drawn): 105.6 ± 11.8%

----------
- target-entity: α-adrenergic blockade (vas deferens specimen, contraction by noradrenalin) (Rattus norvegicus, UniProt P43140)
- Construct: from tissue; host or cells: vas deferens of six-week-old male Wistar rat
- Sequence (P43140 whole entry): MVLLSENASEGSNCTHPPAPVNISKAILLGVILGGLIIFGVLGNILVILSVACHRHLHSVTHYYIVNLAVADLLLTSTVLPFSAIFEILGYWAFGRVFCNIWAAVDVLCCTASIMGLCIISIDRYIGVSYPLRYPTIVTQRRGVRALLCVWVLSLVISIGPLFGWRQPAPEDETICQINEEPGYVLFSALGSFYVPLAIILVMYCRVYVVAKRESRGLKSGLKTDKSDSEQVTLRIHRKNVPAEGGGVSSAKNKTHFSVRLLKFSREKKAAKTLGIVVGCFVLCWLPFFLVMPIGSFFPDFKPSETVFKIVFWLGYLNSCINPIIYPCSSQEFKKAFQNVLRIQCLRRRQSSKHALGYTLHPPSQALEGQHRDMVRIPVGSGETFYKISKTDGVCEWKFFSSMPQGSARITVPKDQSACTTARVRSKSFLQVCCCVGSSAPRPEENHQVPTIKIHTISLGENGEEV
- assay-remarks: α-Adrenergic blockade effect (contraction response by noradrenalin of vas deferens specimen, Magnus method)
- Set-up: species or system Wister male rat
- condition-context: rat vas deferens; antagonism of noradrenalin contraction; pA2 = negative logarithm of antagonist dose shifting agonist curve two times; read-out: α-Adrenergic blockade effect, pA2 value (converted)
Where a name gives a salt, the structure may show the parent alone.
measured-metric: Kb (nM)

* NC(=O)c1cc2cccc(OCC(O)CN3CCN(c4cccc(Cl)c4)CC3)c2o1 (stereo not drawn) [Ex. 15] | 3020
* COc1ccccc1N1CCN(CC(O)COc2ccc3oc(C(C)=O)cc3c2)CC1 (stereo not drawn) [Ex. 5 (HCl salt)] | 49
* Cc1ccccc1N1CCN(CC(O)COc2cccc3cc(C(N)=O)oc23)CC1 (stereo not drawn) [Ex. 13] | 240
* COc1ccccc1N1CCN(CC(O)COc2cccc3cc(C(=O)O)oc23)CC1 (stereo not drawn) [Ex. 21 (HCl salt)] | 355
* COc1ccccc1N1CCN(CC(O)COc2cccc3cc(C(N)=O)oc23)CC1 (stereo not drawn) [Ex. 9] | 27.5
* CC(=O)c1cc2cccc(OCC(O)CN3CCN(c4ccccc4)CC3)c2o1 (stereo not drawn) [Ex. 1 (HCl salt)] | 209
* COc1ccc(N2CCN(CC(O)COc3cccc4cc(C(N)=O)oc34)CC2)cc1 (stereo not drawn) [Ex. 10] | 87.1
* Cc1ccccc1N1CCN(CC(O)COc2ccc3cc(C(N)=O)oc3c2)CC1 (stereo not drawn) [Ex. 14] | 110
* COc1ccccc1N1CCN(CC(O)COc2ccc3cc(C#N)oc3c2)CC1 (stereo not drawn) [Ex. 17 (HCl salt)] | 204
* COc1ccccc1N1CCN(CC(O)COc2ccc3oc(C(N)=O)cc3c2)CC1 (stereo not drawn) [Ex. 12] | 100
* CC(=O)c1cc2cc(OCC(O)CN3CCN(c4ccccc4C)CC3)ccc2o1 (stereo not drawn) [Ex. 7 (HCl salt)] | 219
* COc1ccccc1N1CCN(CC(O)COc2ccc3cc(C(N)=O)oc3c2)CC1 (stereo not drawn) [Ex. 11] | 57.5
* Cc1ccccc1N1CCN(CC(O)COc2cccc3cc(C(C)O)oc23)CC1 (stereo not drawn) [Ex. 23] | 77.6
* CCOC(=O)c1cc2cccc(OCC(O)CN3CCN(c4ccccc4OC)CC3)c2o1 (stereo not drawn) [Ex. 18 (HCl salt)] | 74.1
* COc1ccccc1N1CCN(CC(O)COc2ccc3cc(C(C)=O)oc3c2)CC1 (stereo not drawn) [Ex. 4 (HCl salt)] | 22.4
* CC(=O)c1cc2cccc(OCC(O)CN3CCN(c4cccc(Cl)c4)CC3)c2o1 (stereo not drawn) [Ex. 8 (HCl salt)] | 468
* COc1ccccc1N1CCN(CC(O)COc2cccc3cc(C(C)=O)oc23)CC1 (stereo not drawn) [Ex. 2 (HCl salt)] | 38.9
* COc1ccccc1N1CCN(CC(O)COc2cccc3cc(C(C)O)oc23)CC1 (stereo not drawn) [Ex. 22] | 50.1
* COc1ccccc1N1CCN(CC(O)COc2cccc3cc(C#N)oc23)CC1 (stereo not drawn) [Ex. 16 (HCl salt)] | 42.7
* CC(=O)c1cc2cccc(OCC(O)CN3CCN(c4ccccc4C)CC3)c2o1 (stereo not drawn) [Ex. 6 (HCl salt)] | 44.7
* COc1ccc(N2CCN(CC(O)COc3cccc4cc(C(C)=O)oc34)CC2)cc1 (stereo not drawn) [Ex. 3 (HCl salt)] | 457

----------
- assay-remarks: Antihypertensive effect and effect on heart rate in spontaneously hypertensive rat (SHR)
- Format: in vivo
- condition-context: 100 mg/kg, po, single dose, maximum over 1, 3, 5, 7 hours (Table 2)
- Description: [Antihypertensive effect and effect on a heart rate on rat suffering from a spontaneously hypertensive rat (SHR)] A blood pressure was measured under no anesthetic condition by means of an apparatus for recording a blood pressure of a tail artery and a heart rate (Riken Kaihatsu Co., Ltd.) (PS-802) and at the same time a heart rate was also measured. […]
measured-metric: Maximum value of change, systolic pressure (mmHg)

• CC(=O)c1cc2cccc(OCC(O)CN3CCN(c4ccccc4C)CC3)c2o1 (stereo not shown) = -90.3
• COc1ccc([C@@H]2Sc3ccccc3N(CCN(C)C)C(=O)[C@@H]2OC(C)=O)cc1 [Diltiazem, reference compound] = -79.9
• COc1ccccc1N1CCN(CC(O)COc2ccc3oc(C(C)=O)cc3c2)CC1 (stereo not shown) = -101.3
• CC(CCc1ccccc1)NCC(O)c1ccc(O)c(C(N)=O)c1 (stereo not shown) [Labetalol, reference compound] = -55.0

----------
- assay-remarks: Antihypertensive effect and effect on heart rate in spontaneously hypertensive rat (SHR)
- Type: in vivo
- condition-context: 100 mg/kg, po, single dose, maximum over 1, 3, 5, 7 hours (Table 2)
Each entry below carries its reported Maximum value of change, systolic pressure.
measured-metric: Maximum value of change, systolic pressure (mmHg)

- CCOC(=O)c1cc2cc(OCC(O)CN3CCN(c4ccccc4C)CC3)ccc2o1 (stereo not drawn) [Ex. 20]: -80.7
- CCOC(=O)c1cc2cc(OCC(O)CN3CCN(c4ccccc4OC)CC3)ccc2o1 (stereo not drawn) [Ex. 19]: -60.1
- COc1ccccc1N1CCN(CC(O)COc2cccc3cc(C(C)O)oc23)CC1 (stereo not drawn) [Ex. 22]: -69.5
- COc1ccccc1N1CCN(CC(O)COc2cccc3cc(C(N)=O)oc23)CC1 (stereo not drawn) [Ex. 9]: -75.6
- CC(=O)c1cc2cc(OCC(O)CN3CCN(c4ccccc4C)CC3)ccc2o1 (stereo not drawn) [Ex. 7]: -117.5
- Cc1ccccc1N1CCN(CC(O)COc2cccc3cc(C(C)O)oc23)CC1 (stereo not drawn) [Ex. 23]: -73.1
- CCOC(=O)c1cc2cccc(OCC(O)CN3CCN(c4ccccc4OC)CC3)c2o1 (stereo not drawn) [Ex. 18]: -65.1
- COc1ccccc1N1CCN(CC(O)COc2cccc3cc(C(=O)O)oc23)CC1 (stereo not drawn) [Ex. 21]: -73.8
- COc1ccccc1N1CCN(CC(O)COc2cccc3cc(C(C)=O)oc23)CC1 (stereo not drawn) [Ex. 2]: -72.4
